Target: HCV polymerase (Hepatitis C virus genotype 1b, UniProt P26663)
Construct: a region encoding NS5B (J Virol 1991 March, 65(3), 1105-13, 544 amino acids after deletion of 47 amino acids on the C-terminal); 6xHis (C); made in house; host or cells: Escherichia coli
Sequence (P26663 2420-2963): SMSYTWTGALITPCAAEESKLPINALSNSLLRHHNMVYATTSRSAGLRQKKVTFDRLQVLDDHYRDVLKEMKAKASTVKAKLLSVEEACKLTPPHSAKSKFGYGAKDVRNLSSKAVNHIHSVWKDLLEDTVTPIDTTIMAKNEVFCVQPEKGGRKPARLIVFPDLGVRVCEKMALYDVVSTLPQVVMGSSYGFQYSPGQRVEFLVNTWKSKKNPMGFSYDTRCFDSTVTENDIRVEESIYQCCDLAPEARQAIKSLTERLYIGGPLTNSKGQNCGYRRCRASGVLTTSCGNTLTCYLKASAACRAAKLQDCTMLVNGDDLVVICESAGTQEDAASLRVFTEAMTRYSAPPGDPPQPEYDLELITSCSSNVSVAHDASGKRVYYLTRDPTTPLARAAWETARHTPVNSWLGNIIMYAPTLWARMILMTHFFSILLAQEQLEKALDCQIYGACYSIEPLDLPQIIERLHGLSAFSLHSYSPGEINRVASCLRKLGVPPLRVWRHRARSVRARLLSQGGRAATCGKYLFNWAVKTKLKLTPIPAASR
Experiment: biochemical
Set-up: species or system HCV BK strain
Counter-ions that a name gives are not always drawn.
recorded-metric: IC50

Here is how some compounds turned out for IC50.
[
  {
    "compound": "COc1ccc2c(c1)OCCn1c-2c(C2CCCCC2)c2ccc(C(=O)NC3(c4nc5ccc(O)cc5[nH]4)CCC3)cc21",
    "experimental-system": "HCV polymerase (Hepatitis C virus genotype 1b, UniProt P26663)",
    "IC50": "< 100 nM"
  },
  {
    "compound": "COC(=O)N1CCC(CCN2CCn3c(c(C4CCCCC4)c4ccc(C(=O)O)cc43)-c3ccc(Cl)cc32)CC1",
    "experimental-system": "HCV polymerase (Hepatitis C virus genotype 1b, UniProt P26663)",
    "IC50": "< 100 nM"
  },
  {
    "compound": "COC[C@@H]1CCCN(CCN2CCn3c(c(C4CCCCC4)c4ccc(C(=O)O)cc43)-c3ccc(F)cc32)C1 [Example 1-509, dihydrochloride]",
    "experimental-system": "HCV polymerase (Hepatitis C virus genotype 1b, UniProt P26663)",
    "IC50": "< 100 nM"
  }
]

Observed IC50 on HCV polymerase (Hepatitis C virus genotype 1b, UniProt P26663), entry CN(C)C1CCN(CCN2CCn3c(c(C4CCCCC4)c4ccc(C(=O)O)cc43)-c3ccccc32)CC1 [Example 1-44, trihydrochloride] , equals < 100 nM

The compound CC(C)Oc1ccc2c(c1)OCCn1c-2c(C2CCCCC2)c2ccc(C(=O)O)cc21 , when measured on HCV polymerase (Hepatitis C virus genotype 1b, UniProt P26663), yielded IC50 of < 100 nM

Item CC(C)(NC(=O)c1ccc2c(C3CCCCC3)c3n(c2c1)CCOc1ccccc1-3)C(=O)N1CCC(O)(c2ccc(F)cc2)CC1 was tested on HCV polymerase (Hepatitis C virus genotype 1b, UniProt P26663); the reported IC50 is < 100 nM

---

Molecular target: HCV polymerase (Hepatitis C virus genotype 1b, UniProt P26663)
Construct: a region encoding NS5B (J Virol 1991 March, 65(3), 1105-13, 544 amino acids after deletion of 47 amino acids on the C-terminal); 6xHis (C); made in house; host or cells: Escherichia coli
Assay: biochemical
Parameters: species or system HCV BK strain
Structures can show the parent of a compound that is named as a salt.
Entries annotated with measured IC50

[
  {
    "molecule": "Cc1ccc2c(c1)N(CCN1CCC(=O)N(C)CC1)CCn1c-2c(C2CCCCC2)c2ccc(C(=O)O)cc21 [Example 1-526, dihydrochloride]",
    "IC50": "< 100 nM"
  }
]

Data point: COCCN1CCCC(Oc2cccc3c2OCCn2c-3c(C3CCCCC3)c3ccc(C(=O)O)cc32)C1 (stereo not drawn) [Example 2-470, monohydrochloride] ; IC50 = < 100 nM

The molecule identified as O=C(O)c1ccc2c(C3CCCCC3)c3n(c2c1)CCN(CCC1CCCN(C2CCCCC2)C1)c1cc(Cl)ccc1-3 (stereo not drawn) [Example 1-379, dihydrochloride] registered its IC50 at < 100 nM
